Measured values drawn from PubChem BioAssay (EPA / NIEHS) for this set.

# systemTested: Bile acid receptor (Homo sapiens)
# methodSummary: ATG_FXR_TRANS: Attagene TRANS-FACTORIAL HepG2 Assay for Farnesoid X Receptor (FXR) (AID 2282979);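 note: hits raise reporter mRNA above DMSO so AC50 marks FXR activation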
# protocolConditions: HepG2 Attagene TRANS FXR-GAL4 reporter transcription
Records with an inconclusive call do not appear. Activity calls are given as the source filed them. Rule for the calls: active = hit-call score of the fitted dose curve at least 0.9, where 1 is the maximum; inconclusive = response in the unintended direction; inactive = score below 0.9.
Response enum: true (active), false (inactive)

Cc1oncc1C(=O)Nc1ccc(C(F)(F)F)cc1
false
Cc1ccc(OC(=O)CC(C)C)cc1
false
O=C(/C=C/C=C/c1ccc2c(c1)OCO2)N1CCCCC1
false
O=P(O)(O)Oc1ccccc1
false
C[Si](C)(C)O[Si](O)(O)O
false

Attention now shifts to the item below.
**Q:** Which outcome did this test record for the compound CC(C)=CCCC(C)C=O (configuration not stated) ?
**A:** false
